Data provenance is the supplement of paper PMC6555819.

PBM binding z-score: recorded values
Test system: RARb homodimer (NR concentration 270 nM)
Test: PBM binding z-score (relative to random genomic background probes); higher = stronger binding; sequences stand for … in GC…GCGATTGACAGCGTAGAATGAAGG
Please reply with the value in numeric form only.

For RARb homodimer (NR concentration 270 nM), give PBM binding z-score of the listed sequence: "CTTAGTTGGTCAGGAGGTCACACACCGGATATGA"
4.33

* * *

System: PPARg homodimer (NR concentration 180 nM)
Assay: PBM binding z-score (relative to random genomic background probes); higher = stronger binding; sequences stand for … in GC…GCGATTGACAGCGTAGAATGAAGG
# PBM binding z-score annotations
Just the number, please, no unit attached.

# count of solved cases: 2
CONSTRUCT_SEQUENCE	PBM binding z-score
CGAACAAGGTCAAAGGACAGTGAAAGGCGACGTA	2.54
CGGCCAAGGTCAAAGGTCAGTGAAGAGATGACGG	7.63

Proceeding to the next sequence to report its PBM binding z-score.
Complete the entry with PBM binding z-score for "TCTACTTGGTCACGGAGGTCACACACGACGGGTA"
3.86

* * *

The sequences listed here are annotated with their PBM binding z-score.
System: PPARg:RXRa (NR concentration 180 nM, RXRa partner concentration 90 nM)
Experiment: PBM binding z-score (relative to random genomic background probes); higher = stronger binding; sequences stand for … in GC…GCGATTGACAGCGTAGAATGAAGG
Just the number, please.

CONSTRUCT_SEQUENCE	PBM binding z-score
GCTGCTCGGTCAACTGATGGTCAGCTAAAGCTCG	-0.584
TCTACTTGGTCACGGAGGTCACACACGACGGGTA	3.67
TCCAGTAGGTTACGGGGGCATTCAGGGATGAAGA	7.15
CATCCAAGGTCAAAGGTCAGTGAAGAGATGACGG	11.1
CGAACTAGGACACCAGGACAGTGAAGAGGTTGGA	2.08

Hello, please tell me recorded PBM binding z-score for this one: "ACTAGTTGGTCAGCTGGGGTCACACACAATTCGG"
2.37

Consider the sequence "ATATGTAGGTTACATCCGAGTCATTCAGGCTATG" . State its measured PBM binding z-score.
5.14

* * *

System: LXRb homodimer (NR concentration 270 nM)
Experiment: PBM binding z-score (relative to random genomic background probes); higher = stronger binding; sequences stand for … in GC…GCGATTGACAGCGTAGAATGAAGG
Is PBM binding z-score at least 0.7? Then Criterion met. If not, Criterion not met.

// below: answered sequences
CONSTRUCT_SEQUENCE	LABEL
ATCGAAAGGTCGAAGGTGAGTCTACCCACCCGAA	Criterion met
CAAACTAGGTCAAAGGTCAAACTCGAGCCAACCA	Criterion met
CGAACTAGGTAACCAGGACAGTGAAGAGGTTGGA	Criterion not met
CGTCAAAGTTCTAGGTAACGTAACAGAAAGCAGC	Criterion not met

Given "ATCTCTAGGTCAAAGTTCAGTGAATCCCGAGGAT" , state whether its PBM binding z-score is at least 0.7.
Criterion met

Quick check, PBM binding z-score >= 0.7? "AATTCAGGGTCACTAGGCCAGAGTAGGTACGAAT"
Criterion met

Textbook exercise: given the entry "TGTCAAAGCTCAAAGGTAACGTAAGTATCCACAC" , state whether its PBM binding z-score is greater than or equal to 0.7.
Criterion not met

Please tell me: is the sequence "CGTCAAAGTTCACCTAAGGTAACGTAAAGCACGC" at or over 0.7 in terms of PBM binding z-score?
Criterion met

# bool: PBM binding z-score of "ACTCGGAGGACAAAGGTAAGAGCTACGCCAGTGA" >= 0.7
Criterion not met
